- protocol: Blood-brain barrier permeability test, oral, SD rats
- Type: in vivo
- experimental.parameters: rat, cerebrospinal fluid, oral 10 mg/kg single dose, time point 4 h, read-out: Drug concentration in cerebrospinal fluid
reported.endpoint: concentration at 4 h
The reply must contain the numeric value and, after it, the unit.

molecule: Nc1nccn2c(C34CCC(CO)(CC3)OC4)nc(-c3ccc(C(F)(F)c4ccccc4F)cc3)c12 [Example 145]
concentration at 4 h: 74.3 ng/mL
//
molecule: Nc1nccn2c(C34CCC(CO)(CC3)OC4)nc(-c3ccc(C(F)(F)c4cccc(Cl)c4F)cc3)c12 [Example 152]
concentration at 4 h: 181 ng/mL
//
molecule: Nc1nccn2c(C34CCC(CO)(CC3)OC4)nc(-c3ccc(C(F)(F)c4ccccc4Cl)cc3)c12 [Example 155]
concentration at 4 h: 220 ng/mL
//
molecule: Nc1nccn2c(C34CCC(CO)(CC3)OC4)nc(-c3ccc(C(F)(F)c4ccccc4)cc3)c12 [Example 125]
concentration at 4 h: 29.6 ng/mL
//
molecule: Nc1nccn2c(C3CCC(CO)OC3)nc(-c3ccc(C(F)(F)c4ccccc4)cc3)c12 (single isomer, unassigned) [Example 111-P1]
concentration at 4 h: 41.9 ng/mL
//
molecule: Nc1nccn2c(C34CCC(CO)(CC3)OC4)nc(-c3ccc(C(F)(F)c4cccc(F)c4Cl)cc3)c12 [Example 146]
concentration at 4 h: 34.3 ng/mL

Now consider a different molecule.
Incoming: Look up concentration at 4 h: Cc1cc(Nc2ncnc3ccc(NC4=NC(C)(C)CO4)cc23)ccc1Oc1ccn2ncnc2c1 [Tucatinib, reference compound]
Outgoing: 14.9 ng/mL
